# System: BT-20 human breast cancer cells
# assay.details: MTT cytotoxicity assay, BT-20
# Assay type: cell-based
# test.conditions: BT-20 (breast cancer), 24-36 hours, read-out: IC50 [MTT]
property.label: IC50

A selection of reference data follows.
[
  {
    "compound": "C=C1C[C@@H]2C[C@@H]3C[C@@H](O)C[C@@H](O3)c3coc(n3)/C=C/C[C@H]3O[C@@H](/C(C)=C/c4coc(C[C@]5(O)C[C@H](OC)C[C@H](CO)O5)n4)[C@H](C)[C@@H](OC(=O)/C=C\\C[C@@H](C1)O2)[C@H]3C [Compound 3, C1-C38 Phorboxazole A]",
    "property.label": "IC50",
    "result": "> 2000 nM"
  },
  {
    "compound": "C=C1C[C@@H]2C[C@@H]3C[C@@H](O)C[C@@H](O3)c3coc(n3)/C=C/C[C@H]3O[C@@H](/C(C)=C/c4coc(C[C@]5(O)C[C@H](OC)C[C@H]([C@H](O)/C=C(C)/C=C/[C@@H](C/C=C/Br)OC)O5)n4)[C@H](C)[C@@H](OC(=O)CCC[C@@H](C1)O2)[C@H]3C [Compound 10, 2,3-Dihydrophorboxazole A]",
    "property.label": "IC50",
    "result": "> 2000 nM"
  },
  {
    "compound": "C=C1C[C@@H]2C[C@@H]3C[C@@H](O)C[C@@H](O3)c3coc(n3)/C=C/C[C@H]3O[C@@H](/C(C)=C/c4coc(C[C@]5(O)C[C@H](OC)C[C@H]([C@H](O)/C=C(C)/C=C/[C@@H](C/C=C/Br)OC)O5)n4)[C@H](C)[C@@H](OC(=O)/C=C\\C[C@@H](C1)O2)[C@H]3C [Compound 1, Phorboxazole A]",
    "property.label": "IC50",
    "result": "3.4 nM"
  }
]

Give the measured IC50 of C#CC[C@H](/C=C/C(C)=C/[C@@H](O)[C@H]1C[C@@H](OC)C[C@](Cc2nc(/C=C(\C)[C@@H]3O[C@@H]4C/C=C/c5nc(co5)[C@H]5C[C@H](O)C[C@@H](C[C@H]6CC(=C)C[C@H](C/C=C\C(=O)O[C@@H]([C@H]4C)[C@H]3C)O6)O5)co2)(OC)O1)OC [Compound 7] .
> 2000 nM
